Target: enzyme I (Escherichia coli, UniProt P08839)
Construct: 3 µM each of purified HPr and enzyme I (Mao et al., 1995); made in house
Assay: biochemical
Set-up: species or system E. coli
Details: peptides from support-based combinatorial libraries; 30 min at 37°C, HPr rate limiting; read-out: inhibition IC50
No end group written: not given here.

[
  {
    "SUBSTANCE": "KKFDLRK [compound 3, KKFDLRK]",
    "UNIT OF MEASURE": "µM",
    "IC50": 820
  },
  {
    "SUBSTANCE": "KKWHLRKR [compound 5]",
    "UNIT OF MEASURE": "µM",
    "IC50": 30
  },
  {
    "SUBSTANCE": "KGWHKRKK [compound 6]",
    "UNIT OF MEASURE": "µM",
    "IC50": 530
  },
  {
    "SUBSTANCE": "KKFHIRKR [compound 9]",
    "UNIT OF MEASURE": "µM",
    "IC50": 160
  },
  {
    "SUBSTANCE": "KKWHKRKK [compound 8]",
    "UNIT OF MEASURE": "µM",
    "IC50": 440
  },
  {
    "SUBSTANCE": "KKWHRRKK [compound 7]",
    "UNIT OF MEASURE": "µM",
    "IC50": 300
  }
]
